Origin of measurements: the supplement of paper PMC7125110

B1: glmS ribozyme (parent)
chain: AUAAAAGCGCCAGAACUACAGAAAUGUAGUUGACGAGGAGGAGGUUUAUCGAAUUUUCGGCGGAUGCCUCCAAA

# Variants of: B1
# TEST DESCRIPTION: self-cleavage kobs at 10000 uM GlcN6P; higher = faster cleavage; RNA array
# MEASUREMENT PARAMETERS: with glucosamine-6-phosphate
Variants at the floor of the assay were thinned out.
# self-cleavage kobs at 10000 uM GlcN6P per record follows
MEASURED PARAMETER: self-cleavage kobs at 10000 uM GlcN6P

sequence_string="AUAAAAGCGCCCGACCUACAGAAAUGUAGUUGACGAGGAGGAGGUUAAACGAAUUUUCGGCGGAUGCCUCCAAA [A12C A15C U47A U49A]" observed_value="< 1e-05 s⁻¹"
sequence_string="AUAAAAGCGCCAGAACUACAGAAAUGUAGGUAACGAGGAGGAGGUUUAUCGAAUUUUCGGCGGAUGCCUCCAAA [U30G G32A]" observed_value="0.00438 s⁻¹"
sequence_string="AUAAAAGCGCCAGAACUACAGAAAUGUAGUUGACGUGGAGGAGGUUUAUCGAAUUUUCGGCGGCUGCCUCCAAA [A36U A64C]" observed_value="< 1e-05 s⁻¹"
sequence_string="AUAAAAGCGCUAGAACUACAGAAAUGUAGUUGACGAGGAGGAGGUUUAUCGAACUCUCGGCGGAUGCCUCCAAA [C11U U54C U56C]" observed_value="0.000337 s⁻¹"
sequence_string="AUAAACGCUCCAGAACUACAGAAAUGUAGUUGACGAGGAGGAGGUUUAUCGAAUUUUCGGCGGAUGCCUACAAA [A6C G9U C70A]" observed_value="< 1e-05 s⁻¹"
sequence_string="AUAAAAGCGCCAGCACUACAGAAAUGUAGUUGACGAGGAUGAGGUUUAUCGAAUUUUCGGCGGAUGCCUCCAAA [A14C G40U]" observed_value="0.000555 s⁻¹"
sequence_string="AUAAAAGCGCCAGAGGUACAGAAAUGUAGUUGGCGAGGAGGAGGUUUAUCGGAUUUUCGACGGAUGCCUCCAAA [A15G C16G A33G A52G G60A]" observed_value="< 1e-05 s⁻¹"
sequence_string="AUAAAAGCGCCAGAACUACAGAAAUGUAGUUGACGAGUAGGAGGUUUAUCGAAUUUUUGGCGGAUGCCUCCAAA [G38U C58U]" observed_value="< 1e-05 s⁻¹"
sequence_string="AUAAAAGCGCCAGAACUACAGAAAUGUAGUUGACGAGGAGGAGGUUUAUCGAAUUUUUGUCGGAUGCCUCCAAA [C58U G60U]" observed_value="< 1e-05 s⁻¹"
